# METHOD SUMMARY: Cytotoxicity against human multidrug-resistant KB-C2 cells after 48 hrs by MTT assay
# Type: functional, cell-based
# MEASUREMENT CONTEXT: KB-C2, 48 h
Consider the following compounds and their measured IC50 readings.

- COMPOUND: "CCCNC(=O)CC(=O)O[C@@H]1CC[C@]2(C)[C@H]3C[C@@H](OC(C)=O)[C@@H]4[C@@H]([C@]5(C)CC[C@H](C(C)(C)O)O5)CC[C@@]4(C)[C@]3(C)CC[C@H]2C1(C)C"
  VALUE PREFIX: "="
  IC50 / µM: 40.8
- COMPOUND: "CC(=O)O[C@@H]1C[C@@H]2[C@@]3(C)CC[C@@H](OC(=O)CC(=O)NC(C)(C)C)C(C)(C)[C@@H]3CC[C@@]2(C)[C@]2(C)CC[C@H]([C@]3(C)CC[C@H](C(C)(C)O)O3)[C@@H]12"
  VALUE PREFIX: "="
  IC50 / µM: 47.9
- COMPOUND: "CCCCCCOC(=O)CC(=O)O[C@@H]1CC[C@]2(C)[C@H]3C[C@@H](OC(C)=O)[C@@H]4[C@@H]([C@]5(C)CC[C@H](C(C)(C)O)O5)CC[C@@]4(C)[C@]3(C)CC[C@H]2C1(C)C"
  VALUE PREFIX: ">"
  IC50 / µM: 100
- COMPOUND: "COC(=O)CC(=O)O[C@@H]1CC[C@]2(C)[C@H]3C[C@@H](OC(C)=O)[C@@H]4[C@@H]([C@]5(C)CC[C@H](C(C)(C)O)O5)CC[C@@]4(C)[C@]3(C)CC[C@H]2C1(C)C [METHYL PAPYRIFERATE]"
  VALUE PREFIX: "="
  IC50 / µM: 32.1

====

# Tested on: KB-C2
# METHOD SUMMARY: Inhibition of P-gp-mediated multidrug-resistance in human KB-C2 cells assessed as increase in colchicine-induced cytotoxicity at 5 ug/ml after 48 hrs by MTT assay
# Type: cell-based
MEASUREMENT KIND: fold change (FC)

- COMPOUND: "CNC(=O)CC(=O)O[C@@H]1CC[C@]2(C)[C@H]3C[C@@H](OC(C)=O)[C@@H]4[C@@H]([C@]5(C)CC[C@H](C(C)(C)O)O5)CC[C@@]4(C)[C@]3(C)CC[C@H]2C1(C)C"
  TEST RESULT: 74.4
- COMPOUND: "CC(=O)O[C@@H]1C[C@@H]2[C@@]3(C)CC[C@@H](OC(=O)CC(=O)NC(C)(C)C)C(C)(C)[C@@H]3CC[C@@]2(C)[C@]2(C)CC[C@H]([C@]3(C)CC[C@H](C(C)(C)O)O3)[C@@H]12"
  TEST RESULT: 9.8
- COMPOUND: "CC(=O)O[C@@H]1C[C@@H]2[C@@]3(C)CC[C@@H](OC(=O)CC(=O)N4CCOCC4)C(C)(C)[C@@H]3CC[C@@]2(C)[C@]2(C)CC[C@H]([C@]3(C)CC[C@H](C(C)(C)O)O3)[C@@H]12"
  TEST RESULT: 185
- COMPOUND: "CCNC(=O)CC(=O)O[C@@H]1CC[C@]2(C)[C@H]3C[C@@H](OC(C)=O)[C@@H]4[C@@H]([C@]5(C)CC[C@H](C(C)(C)O)O5)CC[C@@]4(C)[C@]3(C)CC[C@H]2C1(C)C"
  TEST RESULT: 53.9
- COMPOUND: "COC(=O)CC(=O)O[C@@H]1CC[C@]2(C)[C@H]3C[C@@H](OC(C)=O)[C@@H]4[C@@H]([C@]5(C)CC[C@H](C(C)(C)O)O5)CC[C@@]4(C)[C@]3(C)CC[C@H]2C1(C)C [METHYL PAPYRIFERATE]"
  TEST RESULT: 51.6
- COMPOUND: "CCCNC(=O)CC(=O)O[C@@H]1CC[C@]2(C)[C@H]3C[C@@H](OC(C)=O)[C@@H]4[C@@H]([C@]5(C)CC[C@H](C(C)(C)OC(=O)C(=O)NCCC)O5)CC[C@@]4(C)[C@]3(C)CC[C@H]2C1(C)C"
  TEST RESULT: 68.8
